Source listed as PubChem BioAssay AID743261.

- study target: 1-phosphatidylinositol 4,5-bisphosphate phosphodiesterase beta-3 (Homo sapiens) (UniProt Q01970)
- Sequence (Q01970 whole entry, looked up): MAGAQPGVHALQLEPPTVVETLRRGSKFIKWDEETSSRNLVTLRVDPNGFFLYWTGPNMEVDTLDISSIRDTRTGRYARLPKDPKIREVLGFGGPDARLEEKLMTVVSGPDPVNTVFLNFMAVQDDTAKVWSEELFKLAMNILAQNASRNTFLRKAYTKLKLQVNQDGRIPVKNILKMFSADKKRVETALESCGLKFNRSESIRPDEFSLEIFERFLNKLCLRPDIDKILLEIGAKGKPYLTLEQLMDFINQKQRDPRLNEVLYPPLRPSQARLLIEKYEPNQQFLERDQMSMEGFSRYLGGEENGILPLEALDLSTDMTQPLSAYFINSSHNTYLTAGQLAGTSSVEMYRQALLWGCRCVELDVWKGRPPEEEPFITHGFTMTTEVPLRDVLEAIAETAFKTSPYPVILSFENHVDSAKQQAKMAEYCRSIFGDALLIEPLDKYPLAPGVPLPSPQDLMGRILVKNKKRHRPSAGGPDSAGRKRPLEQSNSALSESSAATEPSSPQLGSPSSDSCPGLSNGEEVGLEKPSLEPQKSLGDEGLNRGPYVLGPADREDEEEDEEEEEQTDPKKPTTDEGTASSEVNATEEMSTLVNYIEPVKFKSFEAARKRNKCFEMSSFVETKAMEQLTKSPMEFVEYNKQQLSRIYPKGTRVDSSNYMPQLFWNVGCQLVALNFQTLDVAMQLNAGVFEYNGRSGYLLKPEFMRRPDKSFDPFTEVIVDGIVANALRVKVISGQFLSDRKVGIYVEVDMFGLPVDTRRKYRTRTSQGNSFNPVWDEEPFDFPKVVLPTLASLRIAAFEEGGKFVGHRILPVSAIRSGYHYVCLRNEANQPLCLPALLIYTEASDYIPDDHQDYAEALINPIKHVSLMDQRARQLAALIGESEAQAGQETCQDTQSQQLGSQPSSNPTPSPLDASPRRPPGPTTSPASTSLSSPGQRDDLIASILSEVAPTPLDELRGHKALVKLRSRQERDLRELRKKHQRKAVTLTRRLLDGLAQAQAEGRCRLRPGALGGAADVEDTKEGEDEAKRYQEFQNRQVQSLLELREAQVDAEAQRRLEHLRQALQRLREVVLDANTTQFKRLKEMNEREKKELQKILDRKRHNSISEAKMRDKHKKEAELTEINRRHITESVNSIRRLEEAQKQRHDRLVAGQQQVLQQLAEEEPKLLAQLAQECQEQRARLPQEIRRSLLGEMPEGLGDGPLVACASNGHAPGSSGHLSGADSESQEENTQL
- measurement description: PLC-beta3 inhibitor confirmation, biochemical, fluorescence, purified enzyme (AID 743261)
- condition description: purified PLC-beta3, fluorogenic substrate fluorescence; at 12.3 µM; active compounds read high
Screen size: about 3,300 compounds; about 35 (1%) were called active. A selection follows.
Below, each entry is listed alongside its reported inhibition.
experimental readout: inhibition (%)

compound	experimental value
O=C(Nc1ccc(Br)cc1)C1CCC(=O)N1Cc1ccccc1Cl (stereo not drawn)	-0.11
CCc1ccc(-c2nc(SCC(=O)NC3CCCC3)n[nH]2)cc1	-2.19
C[C@H](C(=O)N(C)c1ccccc1)[C@@H](O)c1ccc2ccccc2c1	-3.71
O=C(C(c1ccccc1)c1ccccc1)N1CCN(CC(O)COc2ccccc2)CC1 (stereo not drawn)	3.79
O=C(C1CCCO1)N1CCN(C(=S)Nc2cccc(Cl)c2)CC1 (stereo not drawn)	-2.93
O=C(CCNS(=O)(=O)c1ccc(Br)cc1)NCC1CCCO1 (stereo not drawn)	1.04
COCc1cc(C(C)=O)ccc1OC	0.95
Cc1nc2ccccc2nc1CC(O)(c1ccccc1)c1ccccc1	1.99
O=C(CSc1nnc(-c2ccncc2)n1C1CCCCC1)Nc1ccccc1	-1.28
CCn1c(SCC(C)=O)nc2sc3c(c2c1=O)CCCC3	-2
Cc1cc(C)c(NC(=O)CN2CCOCCOCCOCCOCC2)c(C)c1	0.38
O=C(C[C@H]1C(=O)N(c2ccc(F)c(F)c2)C[C@@H]1Cc1ccccc1)Nc1ccccc1	9.92
N#Cc1c(NC(=O)C2CCCO2)sc2c1CCCCC2 (stereo not drawn)	-7.76
COc1ccc(/C=C2\N=C3CCCN3C2=O)cc1	-5.85
CNC(=O)n1ccc(C(=O)N2CCCCC2)n1	-1.25
O=C(CSc1ncn[nH]1)N/N=C/c1ccc(F)cc1	1.52
COc1cc(NC(=O)COC(=O)c2ccc([N+](=O)[O-])s2)cc(OC)c1OC	2.2
CCC1S/C(=N/N=C/c2ccco2)NC1=O (stereo not drawn)	3.39
CCOC(=O)[C@]12CCCC=C1N(CCCOC)C(=O)[C@@H]2CC(=O)N1CCOCC1	-1.19
CCc1c(Nc2ccccc2C)nc(N)[nH]c1=O	1.95
Cc1cc2nc(SCCN3CCOCC3)[nH]c2cc1C	0.27
CC(=O)c1c(C)[nH]c(C(=O)OCC(=O)Nc2cc(S(=O)(=O)N3CCCCC3)ccc2C)c1C	2.76
COC(=O)CN1C(=O)C(O)=C(C(C)=O)C1c1ccc([N+](=O)[O-])cc1 (stereo not drawn)	2.66
